assay.remarks: qHTS assay for small molecule activators of the heat shock response signaling pathway - cell viability counter screen (AID 743209); also: nearly all actives have a fitted effect of over 50% in size
condition.info: HSE-bla HeLa viability, CellTiter-Glo luminescence, 5 h; series mostly up to 62.6 µM
Excerpt: U.S. Tox21 Program National Center for Advancing Translational Sciences [NCATS] NIH Chemical Genomics Center [NCGC] U.S. Environmental Protection Agency [EPA] National Institutes of Environmental Health Sciences [NIEHS] National Toxicology Program [NTP] U.S. Food and Drug Administration [FDA] Tox21 Assay Overview: Various chemicals, environmental and physiological stress conditions may lead to the activation of heat shock response/ unfolded protein response (HSR/UPR). […]
Results filed as inconclusive are left out. Calls of active or inactive are those of the source. Calls follow the shape of the dose curve; as a rule, active = well fitted cell-killing curve with a large enough effect in the repeat runs; inconclusive = weak or mixed curves, or effect the other way; inactive = no such curve, though single readings can be large or run the other way.
Form entry, call: pick from active, inactive

Qu. So what was the verdict on Cc1cccc(N(C)C(=S)Oc2ccc3ccccc3c2)c1 in this test?
Ans. inactive
